# System: rodent lifetime carcinogenesis bioassay, tumor incidence TD50
# METHOD_SUMMARY: carcinogenic potency in animals, long-term in vivo studies, CPDB compilation (AID 1745844)
# CONDITION_SET: rat; strain Fischer 344; males; in feed; site: colon + rectum; lesion: adenocarcinoma, NOS; dosed 78 weeks; study length 104 weeks
METRIC: TD50

Lookup: What value of measured TD50 is listed for Nc1ccc(N=Nc2ccccc2)c(N)n1 ?
Found: 333 mg/kg/day

====

# System: rodent lifetime carcinogenesis bioassay, tumor incidence TD50
# METHOD_SUMMARY: carcinogenic potency in animals, long-term in vivo studies, CPDB compilation (AID 1745844)
# CONDITION_SET: mouse; strain B6C3F1; females; by gavage; site: lung; lesion: alveolar/bronchiolar adenoma + alveolar/bronchiolar carcinoma; dosed 102 weeks; study length 105 weeks
METRIC: TD50 (mg/kg/day)
Please state the figure in mg/kg/day; there is no need to write the unit.

Lookup: Could you share which TD50 value was measured for ClC(Cl)Br ?
Found: 644
